- Protocol: blockers of RIG-like receptor reporter activation – cell-based, Sendai virus stimulus, luciferase, 10K MLSCN set, TLR/RLR signaling modifier project, primary screen (AID 602276);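 further: firefly luciferase from ISG56 promoter only with Renilla not read in this screen; 0% = Sendai virus plus DMSO and 100% = medium plus DMSO without virus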
- Study conditions: HEK293 RL24 IRF3 luciferase reporter, at 10 µM, active compounds read high
Would you kindly list inhibition for each of these compounds?
Answers are plain numbers, in %.

>  <Compound>
CCNC(=O)c1ccc(NS(=O)(=O)c2ccccc2)cc1

>  <inhibition [%]>
13.3

$$$$
>  <Compound>
CCn1cc(C(=O)O)c(=O)c2ccc(C)nc21

>  <inhibition [%]>
15.8

$$$$
>  <Compound>
CC1CCN(C(=O)CSc2nnc(-c3cccnc3)n2C2CCCCC2)CC1

>  <inhibition [%]>
18.4

$$$$

Could you tell me inhibition for each of these compounds? They are listed below.
1. Clc1ccccc1OCc1nn2c(-c3ccncc3)nnc2s1
2. CCOc1ccc(NC(=O)CN2CCN(CC(=O)Nc3ccc(F)c(F)c3)CC2)cc1
3. CN(C(=O)COC(=O)C1CCN(S(=O)(=O)c2cccs2)CC1)C1CCS(=O)(=O)C1 (stereo unspecified)
4. Cc1ccc(CNC(=O)CSc2n[nH]c(N)n2)cc1
5. O=C(O)CCc1ccc(-c2cccs2)n1NC(=O)c1ccco1
6. O=C(O)CCCNS(=O)(=O)c1ccc(NCc2ccccc2)c(C(=O)O)c1
7. COc1ccc(C(CNC(=O)CN2C(=O)NC3(CC(C)CC(C)(C)C3)C2=O)N2CCOCC2)cc1 (stereo unspecified)

8.19
12.5
-5.26
15.9
20.8
10.5
-2.17

Quote inhibition reported for `NC(=O)C1(N2CCCCC2)CCN(Cc2ccccc2Cl)CC1` please.
12.3

====

Assignment: determine reported fluorescence slope for the given compounds.
- Tested system: Muscarinic acetylcholine receptor M4 (Homo sapiens) (UniProt P08173)
- Sequence (P08173 whole entry, looked up): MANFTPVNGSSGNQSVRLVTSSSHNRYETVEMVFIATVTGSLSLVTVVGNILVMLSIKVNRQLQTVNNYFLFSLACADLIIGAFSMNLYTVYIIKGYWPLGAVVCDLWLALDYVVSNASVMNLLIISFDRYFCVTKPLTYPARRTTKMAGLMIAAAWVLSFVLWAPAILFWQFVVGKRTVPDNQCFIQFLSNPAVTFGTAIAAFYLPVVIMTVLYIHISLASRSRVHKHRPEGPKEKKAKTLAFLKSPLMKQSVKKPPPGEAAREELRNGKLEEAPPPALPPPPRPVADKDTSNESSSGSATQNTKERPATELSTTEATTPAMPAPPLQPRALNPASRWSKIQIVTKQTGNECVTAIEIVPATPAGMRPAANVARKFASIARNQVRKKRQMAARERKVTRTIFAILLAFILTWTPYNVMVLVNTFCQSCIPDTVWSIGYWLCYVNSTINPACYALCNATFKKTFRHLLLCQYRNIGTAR
- Protocol: M4-linked GIRK flux change, two-sided – cell-based, HEK293 M4/GIRK, thallium flux, BTC-AM, M4 allosteric agonist project, primary screen (AID 625);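 further: thallium influx through GIRK channels coupled to M4 in HEK293 cells with BTC-AM dye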
- Study conditions: at 10 µM, actives lie on both sides
One number for each entry.

Reference set, count: 3
>  <Compound>
COc1ccccc1-c1c(C)nn2c(C)c(C(C)=O)cnc12

>  <Tested system>
Muscarinic acetylcholine receptor M4 (Homo sapiens) (UniProt P08173)

>  <Result number>
0.00778

$$$$
>  <Compound>
CCCCCc1c(O)c2ccccc2[nH]c1=O

>  <Tested system>
Muscarinic acetylcholine receptor M4 (Homo sapiens) (UniProt P08173)

>  <Result number>
0.00337

$$$$
>  <Compound>
COc1cccc(CC(NC(C)=O)C(=O)NC2CCN(c3c4c(nc5ncnn35)CCC4)CC2)c1 (stereo not drawn)

>  <Tested system>
Muscarinic acetylcholine receptor M4 (Homo sapiens) (UniProt P08173)

>  <Result number>
0.00506

$$$$

// each listed compound needs a value for fluorescence slope
1. CCC1(CC)C(=O)C(C)(C)C(=O)OC1c1cccs1 (stereo not drawn)
2. Oc1cnc2ccccc2c1CN1CCOCC1
3. O=C1CN=C(Nc2cccc(C(F)(F)F)c2)N1C1CCCC1
4. Cc1nc2ccc(NC(=O)N3CCOCC3)cc2s1
5. CCOc1ccc2nc(NC(=O)C(NS(=O)(=O)c3cccs3)C(C)C)sc2c1 (stereo not drawn)
6. COC(=O)c1cc(Br)c(=O)n(CCN2CCOCC2)c1

0.00495
0.0061
0.00643
0.00618
0.00543
0.00578

Please report fluorescence slope for every entry that follows.
1. c1cncc(-c2nnc(-c3ccco3)o2)c1
2. COc1ccc(NC(=O)CCNC(=O)Cn2ccc3ccccc3c2=O)c(OC)c1
3. CCOC(=O)N1CCN(C(=O)c2ccc(N3C(=O)CCC3=O)cc2)CC1
4. Cc1cc(C)nc(N2CCCC(C(=O)Nc3ccc4c(c3)OCO4)C2)n1 (stereo not drawn)
5. COc1cc(C)nc(NS(=O)(=O)c2ccc(C)cc2)n1
6. CCOC(=O)N1CCC(NC(=O)CCc2c(C)nc3c(c(C)nn3C(C)(C)C)c2C)CC1

0.00567
0.00839
0.00679
0.0054
0.00648
0.00517

Count: 7. Required value per item: fluorescence slope.
1. Cc1ccc(-n2c(=O)c3sccc3n(CC(=O)NCc3ccco3)c2=O)cc1
2. Cc1ccc(C2N(c3ccc(Cl)c(Cl)c3)C(=O)C3CCCN32)o1 (stereo not drawn)
3. CCOc1ccccc1NC(=O)CSc1c(C)n[nH]c1C
4. CCNc1nc(NCC)n2c(SCc3nc4ccccc4c(=O)[nH]3)nnc2n1
5. CCCN(CCC)CCNC(=O)C(NS(=O)(=O)c1ccc2c(c1)CCC(=O)N2)c1ccccc1 (stereo not drawn)
6. CCN(CC)c1ccc2c(c1)CCCN2
7. O=C1CC(=O)N(Cc2cccs2)C(=O)N1

[0.0056, 0.0047, 0.00526, 0.00293, 0.00588, 0.00991, 0.00466]
